Here the recorded IC50 is given for each entry.
# Measured On: hTSHR (Homo sapiens, UniProt P16473)
# Construct: expressed in transfected cells
# Sequence (P16473 21-764): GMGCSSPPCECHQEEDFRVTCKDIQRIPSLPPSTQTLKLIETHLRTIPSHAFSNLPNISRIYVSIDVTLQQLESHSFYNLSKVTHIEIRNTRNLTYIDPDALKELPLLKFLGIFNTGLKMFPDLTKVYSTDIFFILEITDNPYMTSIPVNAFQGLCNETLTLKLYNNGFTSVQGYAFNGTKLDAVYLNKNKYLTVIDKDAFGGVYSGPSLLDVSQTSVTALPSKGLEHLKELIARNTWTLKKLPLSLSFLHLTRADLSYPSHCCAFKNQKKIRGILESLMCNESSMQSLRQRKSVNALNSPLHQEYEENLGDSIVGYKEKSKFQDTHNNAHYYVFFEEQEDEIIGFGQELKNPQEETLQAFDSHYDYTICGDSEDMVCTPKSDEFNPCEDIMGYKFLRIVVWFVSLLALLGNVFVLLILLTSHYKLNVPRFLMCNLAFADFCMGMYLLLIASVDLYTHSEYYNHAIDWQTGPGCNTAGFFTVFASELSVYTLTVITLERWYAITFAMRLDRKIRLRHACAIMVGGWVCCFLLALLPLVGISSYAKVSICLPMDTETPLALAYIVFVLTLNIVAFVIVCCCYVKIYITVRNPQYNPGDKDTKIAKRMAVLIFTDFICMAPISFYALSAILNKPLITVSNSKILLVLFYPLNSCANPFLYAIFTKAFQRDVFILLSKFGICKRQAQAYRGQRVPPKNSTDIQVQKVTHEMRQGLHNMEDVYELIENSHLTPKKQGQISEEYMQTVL
# Test: hTSHR TR-FRET cAMP Assay (inhibition of M22-stimulated cAMP production)
# Format: cell-based
# Measurement Conditions: Expi293F Inducible cells stably expressing hTSHR; cAMP HTRF; stimulated with EC80 of anti-TSHR antibody M22; 15 min compound preincubation, 30 min at 37° C.; read-out: Activity (IC50 bins)

Consider the reported IC50 for these compounds:
- CC(C)(NC(=O)Nc1ccc2c(c1)ncc(=O)n2Cc1ccccc1)C(F)(F)F [Example 198]: 100 to 1000 nM
- C[C@H]1Oc2cc(NC(=O)NC3(C)CCCC3)ccc2N(Cc2cccc(OC(F)(F)F)n2)C1=O [Example 321]: < 100 nM
- CC(C)(C)NC(=O)Nc1ccc2c(c1)ncc(=O)n2Cc1cccc(C(F)(F)F)c1 [Example 90]: 100 to 1000 nM

Shifting focus to the compound that follows.
Record Cc1ccc(C#N)c(CN2C(=O)[C@H](C)Oc3cc(NC(=O)NC(C)(C)C)ccc32)c1 [Example 88] . Reported IC50: > 1000 nM

---

# Measured On: hTSHR (Homo sapiens)
# Construct: expressed in transfected cells
# Test: hTSHR TR-FRET cAMP Assay (inhibition of M22-stimulated cAMP production)
# Format: cell-based
Metric Name: IC50

• C[C@@H](c1cccc(-c2ccccc2)c1)n1c(=O)cnc2cc(NC(=O)NC(C)(C)C)ccc21 = 100 to 1000 nM

Shifting focus to the compound that follows.
Record `CC(C)(C)NC(=O)Oc1ccc2c(c1)CCC(=O)N2Cc1ccccc1` . Reported IC50: > 1000 nM

---

Here the recorded pIC50 is given for each entry.
# Measured On: hTSHR (Homo sapiens)
# Construct: expressed in transfected cells
# Test: hTSHR TR-FRET cAMP Assay (inhibition of M22-stimulated cAMP production)
# Type: cell-based
# Measurement Conditions: Expi293F Inducible cells stably expressing hTSHR; cAMP HTRF; stimulated with EC80 of anti-TSHR antibody M22; 15 min compound preincubation, 30 min at 37° C.; read-out: Activity (IC50 bins)
pIC50: −log10 of the molar value.

Consider the reported pIC50 for these compounds:
• C[C@@H](c1cc(Cl)c(F)cc1F)n1c(=O)cnc2cc(NC(=O)NC(C)(C)C)ccc21 = 6.00 to 7.00
• C[C@@H](c1cccc(OC(F)(F)F)c1)n1c(=O)cnc2cc(NC(=O)NC(C)(C)C)c(C#N)cc21 = 6.00 to 7.00
• C[C@H]1Oc2c(cc(F)c(NC(=O)NC(C)(C)C)c2F)N(Cc2cccc(C(F)F)c2)C1=O = > 7.00

Note to self: pIC50 of `C[C@@H](c1cccc(OC(F)(F)F)c1)n1c(=O)cnc2cc(NC(=O)NC34CCC(CC3)C4)ccc21` with hTSHR (Homo sapiens) was > 7.00

Note to self: pIC50 of `CC(C)(C)NC(=O)Nc1ccc2c(c1)CCC(=O)N2CC1CCCCC1` with hTSHR (Homo sapiens) was < 6.00

Note to self: pIC50 of `C[C@H]1Oc2cc(NC(=O)NC(C)(C)C)ccc2N(Cc2cccc([C@@H](O)C(F)(F)F)c2)C1=O` with hTSHR (Homo sapiens) was 6.00 to 7.00

Note to self: pIC50 of `CC(C)Oc1cccc([C@H](C)n2c(=O)cnc3cc(NC(=O)NC(C)(C)C)ccc32)c1` with hTSHR (Homo sapiens) was 6.00 to 7.00

Data provenance: patent US20260365628A1
